// relative integration efficiency (log2) lookup, one value per entry
B1: library; a variant is named by its letters at N, in order (parent)
chain: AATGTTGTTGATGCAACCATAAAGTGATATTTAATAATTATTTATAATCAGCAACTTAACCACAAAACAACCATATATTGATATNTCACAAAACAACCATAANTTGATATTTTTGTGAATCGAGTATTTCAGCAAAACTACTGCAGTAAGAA

Variants of: B1
Assay: relative integration efficiency (T-RL orientation) vs wild-type transposon end (log2 (normalized fold change)); transposon end mutated: left end; higher = more efficient transposition
Details: with VchCAST RNA-guided transposition machinery (E. coli BL21(DE3) host, lacZ target)
Answer as a number with no unit attached.

Look over these answered cases.
CG T86A	0.656
CG C60A C61A	0.353
CG T111G	-0.195
CG C55G T56A T57A A58T	-0.983
TA A22T G24T T31C A33C A70C T76A T84A C87A A96C T112G T113C	-0.334
CG C87G A88T C89G A90T	-0.077

Please report relative integration efficiency (log2) for the following variant: CG T105A G106C
-2.19

Please report relative integration efficiency (log2) for the following variant: CG T110A T111A T112A T113A
-0.587

Please report relative integration efficiency (log2) for the following variant: CG A34T T35A
0.209

Please report relative integration efficiency (log2) for the following variant: CG A22T A23T
-0.421

Please report relative integration efficiency (log2) for the following variant: CG A96T
-0.314

Please report relative integration efficiency (log2) for the following variant: CG C60G
-0.0988

Please report relative integration efficiency (log2) for the following variant: TG A16C G24T T30A T76A T78G C87A
0.0194

Please report relative integration efficiency (log2) for the following variant: CG T100G A101C
-2.16

Please report relative integration efficiency (log2) for the following variant: TA A23G G24T A33T A70C T76A T84A C87A A96C T112G T113C
0.137

Please report relative integration efficiency (log2) for the following variant: CG T79G
-0.702
